ASSAY SUMMARY: Urinary recovery after intramuscular administration to mice
Type: in vivo
ASSAY SETUP: mouse, urine, im, 20 mg/kg, 20 mg/kg i.m., 0-24 hours
REPORTED PROPERTY: dose excreted at 24 h (%)
Answers are plain numbers, in %.

For record C[C@@H](O)[C@H]1C(=O)N2C(C(=O)[O-])=C(SCc3cc[n+](C)cc3)C[C@H]12 the listed dose excreted at 24 h is 26.7

---

ASSAY SUMMARY: Half-life (stability) in buffer solution
Format: physicochemical
ASSAY SETUP: phosphate buffer, pH 7.4, M=0.967, T=37° C.; read-out: T1/2 (half-life in solution) (converted)
REPORTED PROPERTY: half-life (h)
Give bare numbers, in h.

Noted for C[C@@H](O)[C@H]1C(=O)N2C(C(=O)[O-])=C(SCc3n(C)nc[n+]3C)C[C@H]12 : its half-life reads 9.1

---

Assignment: determine reported half-life at 100 µM for the given compounds.
ASSAY SUMMARY: Half-life (stability) in buffer solution
Format: physicochemical
ASSAY SETUP: 10^-4 M, (phosphate) buffer pH 7.4, 37° C.; read-out: half-life in solution (converted)
Numbers only, in h.

Cc1cccc(CSC2=C(C(=O)[O-])N3C(=O)[C@H]([C@@H](C)O)C3[C@H]2C)[n+]1C (stereo in doubt)
20.8
Cc1cccc(CSC2=C(C(=O)[O-])N3C(=O)[C@H]([C@@H](C)O)[C@H]3C2)[n+]1C
12.5
C[C@@H](O)[C@H]1C(=O)N2C(C(=O)[O-])=C(SCc3n[n+](C)nn3C)C[C@H]12
10.5

Briefly, half-life at 100 µM measured for Cc1c(CSC2=C(C(=O)[O-])N3C(=O)[C@H]([C@@H](C)O)C3[C@H]2C)sc[n+]1C (stereo in doubt) : 19

---

ASSAY SUMMARY: Blood levels in mice after intramuscular administration;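 also: compounds dissolved in 0.1 M phosphate buffer at pH 7, data from one experiment using four mice for each compound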
ASSAY SETUP: mouse, blood, im, 20 mg/kg
Provide the recorded Cmax for the entries that follow.
Numbers only, in ng/mL.

Example compounds with recorded Cmax:
C[C@@H](O)[C@H]1C(=O)N2C(C(=O)[O-])=C(SCc3n(C)nc[n+]3C)C[C@H]12
27000
C[C@@H](O)[C@H]1C(=O)N2C(C(=O)[O-])=C(SCc3cn(CC(=O)O)n[n+]3C)C[C@H]12
14900
CCC[n+]1ccc(CSC2=C(C(=O)[O-])N3C(=O)[C@H]([C@@H](C)O)[C@H]3C2)cc1
17700
C[C@@H](O)[C@H]1C(=O)N2C(C(=O)[O-])=C(SCc3ccc[n+](C)c3)C[C@H]12
14500
C[C@@H](O)[C@H]1C(=O)N2C(C(=O)[O-])=C(SCc3cn(C)n[n+]3C)C[C@H]12
16700

Below are some compounds; for each one, tell me its Cmax.
1. Cc1scc(CSC2=C(C(=O)[O-])N3C(=O)[C@H]([C@@H](C)O)[C@H]3C2)[n+]1C
2. Cc1c(CSC2=C(C(=O)[O-])N3C(=O)[C@H]([C@@H](C)O)[C@H]3C2)ccc[n+]1C

Output:
18800
15800

---

ASSAY SUMMARY: Urinary recovery after intramuscular administration to mice
Format: in vivo
ASSAY SETUP: mouse, urine, im, 20 mg/kg, 20 mg/kg i.m., 3-6 hours
REPORTED PROPERTY: dose excreted at 6 h
Don't forget the unit after the number, please.

In plain terms, C[C@@H](O)[C@H]1C(=O)N2C(C(=O)[O-])=C(SCc3cc[n+](C)cc3)C[C@H]12 has a documented dose excreted at 6 h of 0.5%
